target: GABA-B receptor (Homo sapiens, UniProt O75899+Q9UBS5); test: Activation of human GABAB1/GABAB2 expressed in HEK293 cells co-transfected with rat CaV2.2 channel assessed as reduction in CaV2.2-mediated peak-current amplitude in response to the depolarizing pulse by whole cell patch clamp assay; assay type: cell-based, HEK293T
Sequence (Q9UBS5 whole entry): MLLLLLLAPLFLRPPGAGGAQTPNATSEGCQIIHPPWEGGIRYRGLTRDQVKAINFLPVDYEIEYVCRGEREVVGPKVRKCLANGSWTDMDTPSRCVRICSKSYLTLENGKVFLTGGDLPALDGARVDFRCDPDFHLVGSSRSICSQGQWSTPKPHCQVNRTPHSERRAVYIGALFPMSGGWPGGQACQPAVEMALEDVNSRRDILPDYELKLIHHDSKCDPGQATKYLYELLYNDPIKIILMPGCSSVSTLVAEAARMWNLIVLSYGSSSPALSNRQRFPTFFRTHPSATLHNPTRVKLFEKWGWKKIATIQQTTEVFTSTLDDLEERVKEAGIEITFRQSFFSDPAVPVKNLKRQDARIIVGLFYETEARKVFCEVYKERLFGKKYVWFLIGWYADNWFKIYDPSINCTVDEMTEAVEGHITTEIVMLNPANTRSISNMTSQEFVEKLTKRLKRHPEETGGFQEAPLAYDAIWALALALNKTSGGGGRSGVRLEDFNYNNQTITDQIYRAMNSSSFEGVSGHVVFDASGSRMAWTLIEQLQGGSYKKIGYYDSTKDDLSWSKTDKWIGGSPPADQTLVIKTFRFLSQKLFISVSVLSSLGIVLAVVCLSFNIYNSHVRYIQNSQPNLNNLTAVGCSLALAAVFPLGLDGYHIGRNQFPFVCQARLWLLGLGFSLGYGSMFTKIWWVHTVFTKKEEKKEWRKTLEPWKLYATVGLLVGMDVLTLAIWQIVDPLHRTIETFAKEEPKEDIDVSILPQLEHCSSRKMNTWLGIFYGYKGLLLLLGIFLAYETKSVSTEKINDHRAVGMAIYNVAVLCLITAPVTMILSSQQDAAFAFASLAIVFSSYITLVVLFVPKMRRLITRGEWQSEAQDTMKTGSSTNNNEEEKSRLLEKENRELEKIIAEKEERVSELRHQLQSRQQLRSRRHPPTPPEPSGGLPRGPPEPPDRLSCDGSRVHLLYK
Sequence (O75899 whole entry): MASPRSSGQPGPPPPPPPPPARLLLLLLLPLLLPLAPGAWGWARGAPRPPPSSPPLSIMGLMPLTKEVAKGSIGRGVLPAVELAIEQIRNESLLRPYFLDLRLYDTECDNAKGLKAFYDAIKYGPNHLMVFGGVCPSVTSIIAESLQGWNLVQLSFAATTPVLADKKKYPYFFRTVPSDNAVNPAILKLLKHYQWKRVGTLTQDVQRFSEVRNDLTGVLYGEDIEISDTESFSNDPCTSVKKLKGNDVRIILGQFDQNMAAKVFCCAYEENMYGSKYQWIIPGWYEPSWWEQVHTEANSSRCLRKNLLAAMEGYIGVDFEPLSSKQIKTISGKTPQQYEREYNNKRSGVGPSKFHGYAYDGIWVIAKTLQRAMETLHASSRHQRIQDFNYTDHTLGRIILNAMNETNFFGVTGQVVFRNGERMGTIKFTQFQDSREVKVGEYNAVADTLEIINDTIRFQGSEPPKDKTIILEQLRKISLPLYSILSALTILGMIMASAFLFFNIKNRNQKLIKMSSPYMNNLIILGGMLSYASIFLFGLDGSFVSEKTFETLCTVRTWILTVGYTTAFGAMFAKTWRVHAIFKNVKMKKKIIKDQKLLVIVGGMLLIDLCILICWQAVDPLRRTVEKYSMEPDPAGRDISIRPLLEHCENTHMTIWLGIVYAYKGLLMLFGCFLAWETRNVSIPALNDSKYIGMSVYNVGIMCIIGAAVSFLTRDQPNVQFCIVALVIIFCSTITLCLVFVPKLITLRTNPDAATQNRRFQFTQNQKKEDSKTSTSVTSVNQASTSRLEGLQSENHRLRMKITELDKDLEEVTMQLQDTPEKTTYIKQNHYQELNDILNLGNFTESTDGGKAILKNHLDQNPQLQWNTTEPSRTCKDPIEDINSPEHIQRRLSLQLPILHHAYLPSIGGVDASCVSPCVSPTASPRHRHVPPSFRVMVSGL
Peptide text beside a SMILES is read from it. * marks the point of attachment. Bz = O=C(c1ccccc1)*
Consider the following compounds; for each one, report its IC50.
One number for each entry, in nM.

{"columns": ["compound", "experimental_value"],
 "data": [
  ["CC[C@H](C)[C@H](NC(=O)[C@H](CCC(=O)O)NC(=O)[C@@H]1CCCN1C(=O)[C@H](Cc1cnc[nH]1)NC(=O)[C@H](CC(=O)O)NC(=O)[C@H](Cc1ccc(O)cc1)NC(=O)[C@H](CCCNC(=N)N)NC(=O)[C@H](CS)NC(=O)[C@H](CCCNC(=N)N)NC(=O)[C@@H]1CCCN1C(=O)[C@H](CC(=O)O)NC(=O)[C@H](CO)NC(=O)[C@H](CS)NC(=O)[C@H](CS)NC(=O)CNC(=O)c1ccccc1)C(=O)N[C@@H](CS)C(N)=O (Bz-GCCSDPRCRYDHPEIC-NH2)", 0.2]
]}

Q) State its IC50 for this compound: CC[C@H](C)[C@H](NC(=O)[C@H](CCC(=O)O)NC(=O)[C@@H]1CCCN1C(=O)[C@H](Cc1cnc[nH]1)NC(=O)[C@H](CC(=O)O)NC(=O)[C@H](Cc1ccc(O)cc1)NC(=O)[C@H](CCCNC(=N)N)NC(=O)[C@H](CS)NC(=O)[C@H](CCCNC(=N)N)NC(=O)[C@@H]1CCCN1C(=O)[C@H](CC(=O)O)NC(=O)[C@H](CO)NC(=O)[C@H](CS)NC(=O)[C@H](CS)NC(=O)CN)C(=O)N[C@@H](CS)C(N)=O (H-GCCSDPRCRYDHPEIC-NH2)
A) 4.9

Taken from ChEMBL document CHEMBL4680110.
